- Experimental system: HIV-1 CAP45.2.00.G3 envelope (Env) on Env.IMC.LucR virus (HIV-1 clade C)
- Method description: cell-based or functional assay
Parameter class (string): assigned from measured IC50 of virus neutralization (TZM-BL, luciferase). Ranges: lo: < 0.04 µg/mL; med: ≥ 0.04 µg/mL and < 0.05 µg/mL; hi: ≥ 0.05 µg/mL

[
  {
    "Binder": "Germ12_NglycoSA_CysCA (antibody, V domains shown) VH: QVDLVQSGAVVKKPGDSVRVSCEAQGYRFPDYIIHWIRRAPGQGPEWMGWMNPMGGQVNIPWKFQGRVSMTRDTSIETAYMDLRGLRSDDTAVYYCVRDRSNGAGKRFESSNWFLDLWGRGTLVTVSS VL: QSALTQPRSVSGSPGQSVTISCTGTHNLVSWAQHQPGRAPKLLIYDFNKRPSGVPDRFSGSGSGGTASLTISGLQDEDDAEYFCWAYEAFGGGTKLTVL",
    "Label class": "med"
  },
  {
    "Binder": "CysCA (antibody, V domains shown) VH: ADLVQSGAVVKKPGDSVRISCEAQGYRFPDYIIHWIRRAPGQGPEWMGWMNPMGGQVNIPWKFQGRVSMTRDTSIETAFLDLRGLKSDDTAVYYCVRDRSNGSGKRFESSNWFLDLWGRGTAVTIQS VL: QSALTQPRSVSASPGQSVTISCTGTHNLVSWAQHQPGRAPKLLIYDFNKRPSGVPDRFSGSGSGGTASLTITGLQDDDDAEYFCWAYEAFGGGTKLTVL",
    "Label class": "lo"
  },
  {
    "Binder": "NglycoSA (antibody, V domains shown) VH: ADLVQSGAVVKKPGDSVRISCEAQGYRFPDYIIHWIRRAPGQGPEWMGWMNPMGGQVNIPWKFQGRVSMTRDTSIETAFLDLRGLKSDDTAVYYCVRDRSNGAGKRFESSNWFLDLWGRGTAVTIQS VL: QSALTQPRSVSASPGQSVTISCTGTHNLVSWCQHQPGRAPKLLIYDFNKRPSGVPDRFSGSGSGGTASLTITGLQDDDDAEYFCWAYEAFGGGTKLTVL",
    "Label class": "lo"
  },
  {
    "Binder": "CysCV (antibody, V domains shown) VH: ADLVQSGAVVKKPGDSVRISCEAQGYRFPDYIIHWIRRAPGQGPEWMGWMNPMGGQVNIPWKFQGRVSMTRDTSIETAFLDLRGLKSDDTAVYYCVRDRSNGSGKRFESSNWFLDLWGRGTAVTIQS VL: QSALTQPRSVSASPGQSVTISCTGTHNLVSWVQHQPGRAPKLLIYDFNKRPSGVPDRFSGSGSGGTASLTITGLQDDDDAEYFCWAYEAFGGGTKLTVL",
    "Label class": "lo"
  },
  {
    "Binder": "Germ23 (antibody, V domains shown) VH: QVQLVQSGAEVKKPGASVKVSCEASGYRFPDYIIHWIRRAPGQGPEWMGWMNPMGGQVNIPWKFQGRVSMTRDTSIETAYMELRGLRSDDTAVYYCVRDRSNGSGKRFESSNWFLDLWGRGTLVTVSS VL: QSALTQPRSVSGSPGQSVTISCTGTHNLVSWCQHHPGKAPKLMIYDFNKRPSGVPDRFSGSGSGGTASLTISGLQAEDEAEYFCWAYEAFGGGTKLTVL",
    "Label class": "lo"
  },
  {
    "Binder": "Germ12 (antibody, V domains shown) VH: QVDLVQSGAVVKKPGDSVRVSCEAQGYRFPDYIIHWIRRAPGQGPEWMGWMNPMGGQVNIPWKFQGRVSMTRDTSIETAYMDLRGLRSDDTAVYYCVRDRSNGSGKRFESSNWFLDLWGRGTLVTVSS VL: QSALTQPRSVSGSPGQSVTISCTGTHNLVSWCQHQPGRAPKLLIYDFNKRPSGVPDRFSGSGSGGTASLTISGLQDEDDAEYFCWAYEAFGGGTKLTVL",
    "Label class": "hi"
  },
  {
    "Binder": "Cd4bs_H53MS_H54GY (antibody, V domains shown) VH: ADLVQSGAVVKKPGDSVRISCEAQGYRFPDYIIHWIRRAPGQGPEWMGWMNPSYGQVNIPWKFQGRVSMTRDTSIETAFLDLRGLKSDDTAVYYCVRDRSNGSGKRFESSNWFLDLWGRGTAVTIQS VL: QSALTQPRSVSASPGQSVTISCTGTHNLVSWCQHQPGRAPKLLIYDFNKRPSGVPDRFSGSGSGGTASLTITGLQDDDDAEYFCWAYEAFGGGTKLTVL",
    "Label class": "lo"
  },
  {
    "Binder": "NglycoND (antibody, V domains shown) VH: ADLVQSGAVVKKPGDSVRISCEAQGYRFPDYIIHWIRRAPGQGPEWMGWMNPMGGQVNIPWKFQGRVSMTRDTSIETAFLDLRGLKSDDTAVYYCVRDRSDGSGKRFESSNWFLDLWGRGTAVTIQS VL: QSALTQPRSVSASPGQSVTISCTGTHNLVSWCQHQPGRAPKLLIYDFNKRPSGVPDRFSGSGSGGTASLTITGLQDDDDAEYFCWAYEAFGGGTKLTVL",
    "Label class": "hi"
  },
  {
    "Binder": "Germ12_NglycoSA_CysCV (antibody, V domains shown) VH: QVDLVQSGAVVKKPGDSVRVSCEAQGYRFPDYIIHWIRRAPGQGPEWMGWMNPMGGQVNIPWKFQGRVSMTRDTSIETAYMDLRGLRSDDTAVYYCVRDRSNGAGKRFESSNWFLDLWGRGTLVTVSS VL: QSALTQPRSVSGSPGQSVTISCTGTHNLVSWVQHQPGRAPKLLIYDFNKRPSGVPDRFSGSGSGGTASLTISGLQDEDDAEYFCWAYEAFGGGTKLTVL",
    "Label class": "med"
  },
  {
    "Binder": "NVS49-L1A2 (antibody, V domains shown) VH: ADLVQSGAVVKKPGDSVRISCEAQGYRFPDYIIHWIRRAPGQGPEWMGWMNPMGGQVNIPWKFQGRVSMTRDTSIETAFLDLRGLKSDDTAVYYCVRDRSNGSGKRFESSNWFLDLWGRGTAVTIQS VL: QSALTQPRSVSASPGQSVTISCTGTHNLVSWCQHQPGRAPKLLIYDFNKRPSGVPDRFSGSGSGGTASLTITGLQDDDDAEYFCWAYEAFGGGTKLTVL",
    "Label class": "hi"
  }
]

Cited source: patent US20210040184A1
